# System: NCI-H226 lung
# assay method text: NCI tumour cell line growth inhibition, 48 h; in the data active = GI50 below about 0.43 µM; inactive = the rest
Assign a class; possible classes are yes (active), no (inactive)

Solved entries:
{"smiles data": "CN=C1NC(=O)/C(=C/c2ccc3ncccc3c2)S1", "target or system": "NCI-H226 lung", "class assignment": "no"}
{"smiles data": "CCN1CCN(c2nc(NCCNc3ccnc4cc(Cl)ccc34)c3ccccc3n2)CC1", "target or system": "NCI-H226 lung", "class assignment": "no"}
{"smiles data": "CC1=C2[C@@H](CC1)[C@]1(C)O[C@@](C(C)C)(C[C@H]1OC(=O)[C@H](C)O)[C@H]2OC(=O)/C=C/c1ccccc1", "target or system": "NCI-H226 lung", "class assignment": "no"}

Exercise: In this assay, the call recorded for CN(C)CCNc1nc2ccccc2c2[nH]c3ccccc3c12 was what?
Key: no

Exercise: In this assay, the call recorded for NNC(=O)c1cnn(-c2ccnc3c(C(F)(F)F)cccc23)c1N was what?
Key: no

Exercise: In this assay, the call recorded for O=[n+]1c(CBr)c(CBr)n([O-])c2ccccc21 was what?
Key: no

Exercise: In this assay, the call recorded for COc1cc([C@@H]2c3cc4c(cc3C[C@H]3COC(=O)[C@@H]32)OCO4)cc(OC)c1OC was what?
Key: yes

Exercise: In this assay, the call recorded for Fc1ccc(-c2nn(-c3ccccc3)cc2-c2nc3ccccc3o2)cc1 was what?
Key: no

###

# Tested on: NCI-H23 lung
# assay method text: NCI tumour cell line growth inhibition, 48 h; in the data active = GI50 below about 0.43 µM; inactive = the rest
Assign a class; possible classes are T = active, F = inactive

Solved entries:
{"molecule": "CC1=C(CCCOC(=O)NCCCl)C2=C(C)C3(CC3)[C@@](C)(O)C(=O)C2=C1", "class assignment": "F"}
{"molecule": "CC[n+]1ccc2c(c1)C(=O)c1nccc3c1c-2nc1ccccc13", "class assignment": "T"}
{"molecule": "N#Cc1c(O)c2c(c(O)c1C#N)C(=O)c1ccccc1C2=O", "class assignment": "F"}
{"molecule": "CCCCCCCCCCCCOC1C(CNCC2OC3OC(C)(C)OC3C2NC(=O)Nc2ccc(C(=O)OCC)cc2)OC2OC(C)(C)OC21 (stereo not given)", "class assignment": "F"}
{"molecule": "O=C(Cc1ccc(/C=C/C(=O)c2ncc[nH]2)cc1)Nc1ccc(Cl)cc1", "class assignment": "F"}
{"molecule": "NS(=O)(=O)c1ccc(-n2nc(-c3ccc(Br)cc3)ccc2=O)cc1", "class assignment": "F"}
{"molecule": "OC(c1cccc(C(F)(F)F)c1)c1cnccc1NC1CCCCCC1 (stereo not given)", "class assignment": "F"}
{"molecule": "CC(=O)c1ccc(N(/C=C/C(=O)C(F)(F)F)CC(=O)c2ccc(Cl)c(Cl)c2)cc1", "class assignment": "F"}

Exercise: In this assay, the call recorded for CN=C1NC(=O)/C(=C/c2ccc3ncccc3c2)S1 was what?
Key: F

Exercise: In this assay, the call recorded for Clc1cccc(NC=Nc2ccc(-c3nc4ccccc4s3)cc2)c1 was what?
Key: F

###

# Test system: SK-MEL-5 melanoma
# assay method text: NCI tumour cell line growth inhibition, 48 h
value type: TGI (µM)
State just the number; it will be interpreted in µM.

{"compound": "S=C1NCCN1C1=Nc2ccccc2CO1", "value type": "TGI", "endpoint unit": "µM", "numeric result": 99.4}
{"compound": "CN1CCN(Cc2ccc(NC(=O)c3cncc(C#Cc4cnc(N)c5ccccc45)c3)cc2C(F)(F)F)CC1", "value type": "TGI", "endpoint unit": "µM", "numeric result": 0.994}

Exercise: What TGI value was documented for this compound, COc1ccc(NC2Oc3cc4c(cc3C(c3cc(OC)c(OC)c(OC)c3)C2C)OCO4)cc1 (stereo unspecified) ?
Key: 4.09

###

# Test system: UACC-62 melanoma
# assay method text: NCI tumour cell line growth inhibition, 48 h
value type: TGI (µM)
State just the number; it will be interpreted in µM.

Known results for compounds:
{"compound": "O=C1CC(c2ccc([N+](=O)[O-])cc2)C2(C(=O)NC(=S)NC2=O)C(c2ccc([N+](=O)[O-])cc2)C1 (stereo not given)", "target or system": "UACC-62 melanoma", "TGI [µM]": 32.6}
{"compound": "C=CCCCC12CCCc3cccc(c31)NC2=O (stereo not given)", "target or system": "UACC-62 melanoma", "TGI [µM]": 31.3}

Exercise: What TGI value was documented for this compound, COc1cccc(C2c3cc4c(cc3OC(N3CCCC3)C2C)OCO4)c1OC (stereo not given) ?
Key: 34.5

###

# Test system: SNB-75 CNS
# assay method text: NCI tumour cell line growth inhibition, 48 h
# key: entry, value: TGI

Exercise: What TGI value was documented for this compound, CC(C)/C(Cl)=N\OC(=O)NNc1ccccc1 ?
Key: > 100 µM

Exercise: What TGI value was documented for this compound, CC1=C2c3ccccc3N(C(=O)/C=C/C(=O)O)[C@H]2[C@H]2C(=O)OC(=O)[C@H]2C1 ?
Key: > 10 µM

Exercise: What TGI value was documented for this compound, CCOP(=O)(OCC)/C(F)=C/c1ccccc1 ?
Key: > 100 µM

Exercise: What TGI value was documented for this compound, O=C(O)/C=C/C(=O)Nc1ncn[nH]1 ?
Key: > 100 µM

###

# Tested on: SK-OV-3 ovarian
# assay method text: NCI tumour cell line growth inhibition, 48 h; in the data active means GI50 below about 0.43 µM; inactive means the rest
Assign a class; possible classes are class 1 = active, class 0 = inactive

{"compound": "CC1=C2[C@@H](CC1)[C@]1(C)O[C@@](C(C)C)(C[C@H]1OC(=O)[C@H](C)O)[C@H]2OC(=O)/C=C/c1ccccc1", "class assignment": "class 0"}
{"compound": "O=C1CSC(N2CCN(c3cccc(Cl)c3)CC2)=N1", "class assignment": "class 0"}
{"compound": "Cn1cc(C2=C(c3ccc(OC[C@@H](O)CO)cc3)C(=O)NC2=O)c2ccccc21", "class assignment": "class 0"}
{"compound": "Fc1ccc(-c2nn(-c3ccccc3)cc2-c2nc3ccccc3o2)cc1", "class assignment": "class 0"}
{"compound": "COc1ccc(CN2CCCC(C(=O)c3ccc(C(F)(F)F)cc3)C2)c(O)c1 (stereo unspecified)", "class assignment": "class 0"}
{"compound": "Cc1c(N2C(=O)/C(=C\\c3ccccc3O)N=C2c2ccccc2)c(=O)n(-c2ccccc2)n1C", "class assignment": "class 0"}

Exercise: In this assay, the call recorded for COc1cc([C@@H]2c3cc4c(cc3C[C@H]3COC(=O)[C@@H]32)OCO4)cc(OC)c1OC was what?
Key: class 1

Exercise: In this assay, the call recorded for Cc1c(Cl)cccc1Nc1ncccc1C(=O)O was what?
Key: class 0

Exercise: In this assay, the call recorded for Clc1cccc(NC=Nc2ccc(-c3nc4ccccc4s3)cc2)c1 was what?
Key: class 0

Exercise: In this assay, the call recorded for CC(=O)c1ccc(N(/C=C/C(=O)C(F)(F)F)CC(=O)c2ccc(Cl)c(Cl)c2)cc1 was what?
Key: class 0

Exercise: In this assay, the call recorded for CCCCCCCCCCCCOC1C(CNCC2OC3OC(C)(C)OC3C2NC(=O)Nc2ccc(C(=O)OCC)cc2)OC2OC(C)(C)OC21 (stereo unspecified) was what?
Key: class 0

Exercise: In this assay, the call recorded for ClCc1ccccc1CSc1ncnc2nc[nH]c12 was what?
Key: class 0

Exercise: In this assay, the call recorded for Clc1ccc(Cc2nc3cc4ccccc4cc3[nH]2)cc1 was what?
Key: class 0

Exercise: In this assay, the call recorded for NNC(=O)c1cnn(-c2ccnc3c(C(F)(F)F)cccc23)c1N was what?
Key: class 0

Exercise: In this assay, the call recorded for S=C1NCCN1C1=Nc2ccccc2CO1 was what?
Key: class 0

Exercise: In this assay, the call recorded for COc1nc2c(cc1S(=O)(=O)c1ccccc1)CCc1c-2cnn1-c1ccccc1Cl was what?
Key: class 0

###

# System: HOP-18 NSCLC
# assay method text: NCI tumour cell line growth inhibition, 48 h
# key: entry, value: TGI
State just the number; it will be interpreted in µM.

{"compound": "CC1=C[C@@H]2Cc3occc3C(C)(C)[C@@H]2CC1", "endpoint unit": "µM", "TGI": 54}
{"compound": "Cc1c(C(=O)/C=C/c2cccc3ccccc23)[n+](=O)c2ccccc2n1[O-]", "endpoint unit": "µM", "TGI": 28.6}
{"compound": "O=C(O)c1cc(S(=O)(=O)N=NC=C2c3ccccc3N(O)c3ccccc32)ccc1O", "endpoint unit": "µM", "TGI": 85.4}

Exercise: What TGI value was documented for this compound, CC1CCC[P+](Cc2ccccc2)(c2ccccc2)CC1 (configuration not stated) ?
Key: 13

Exercise: What TGI value was documented for this compound, O=C(N/N=C/c1cccc(O)c1O)N/N=C/c1cccc(O)c1O ?
Key: 67.1
